Data provenance is ChEMBL document CHEMBL1201862.

# System: SF-539
# measurement-description: NCI tumour cell line growth inhibition, 48 h
Active and inactive are the calls of the source. Rule as the data show it: active = GI50 up to about 1.1 µM and inactive = higher.
assay-endpoint: GI50

>>> result("CC(C)(C)OC(=O)/C=C/C(=O)O/C=C/[N+](=O)[O-]")
"> 100 µM (inactive)"
>>> result("O=C1C[C@H]2[C@H](c3ccc(Br)cc3)[C@H]3C(=O)c4ccccc4NC(=O)[C@@H]3[C@@]2(O)c2ccccc2N1")
"19.5 µM (inactive)"

Look up GI50: NNC1=N/C(=C\c2ccco2)C(=O)N1 > 100 µM (inactive)

###

# System: SF-268
# measurement-description: NCI tumour cell line growth inhibition, 48 h
Calls of active or inactive are those of the source. Rule as the data show it: active = GI50 up to about 1.1 µM and inactive = higher.
assay-endpoint: GI50

>>> result("Cn1c(=O)c2c(nc3n(CC(O)CCl)c(=O)ccn23)n(C)c1=O (configuration not stated)")
"20.5 µM (inactive)"
>>> result("COc1c2c(cc3nc4ccccc4nc13)CCC(C(C)(C)O)C2 (configuration not stated)")
"> 100 µM (inactive)"
>>> result("CS(=O)(=O)OCCn1cnc2nc(NC(=O)c3ccccc3)[nH]c(=O)c21")
"> 100 µM (inactive)"
>>> result("CC12CCC(=O)C=C1CCC1C2CCC2(C)C(C(=O)Cn3cnc4c(=S)nc[nH]c43)CCC12 (configuration not stated)")
"38.3 µM (inactive)"
>>> result("O=C(Nc1ccccc1)OCCN=c1c2ccccc2ccc2ccccc12")
"34.8 µM (inactive)"
>>> result("CCC(=O)NCC1CCCN2CCCCC12 (configuration not stated)")
"> 100 µM (inactive)"

Look up GI50: CN(Cc1ccccc1)C(=S)S [SODIUM BENZYL(METHYL)CARBAMODITHIOATE] 53.3 µM (inactive)

Now try CCCCCCCCCCCCCC(=O)OC1CC(=O)OC1CO (configuration not stated) . 64 µM (inactive)

Now try NN=C(CC(O)(C(F)(F)Cl)C(F)(F)Cl)CC(O)(C(F)(F)Cl)C(F)(F)Cl . > 10 µM (inactive)

Now try Oc1cc(-c2cccs2)nc2cc3c(cc12)OCO3 . 6.43 µM (inactive)

Now try CCOC(=O)c1cc(C#N)[nH]c1-c1ccsc1 . 22.8 µM (inactive)

Now try COC(=O)c1nc2c(C)c(O)c(O)c([C@H](C)CCC=C(C)C)c2o1 . 33.3 µM (inactive)
